Consider the following molecules; for each one, report its EC50.
# target.entity: human TGR5 receptor (Homo sapiens, UniProt Q8TDU6)
# Sequence (Q8TDU6 whole entry): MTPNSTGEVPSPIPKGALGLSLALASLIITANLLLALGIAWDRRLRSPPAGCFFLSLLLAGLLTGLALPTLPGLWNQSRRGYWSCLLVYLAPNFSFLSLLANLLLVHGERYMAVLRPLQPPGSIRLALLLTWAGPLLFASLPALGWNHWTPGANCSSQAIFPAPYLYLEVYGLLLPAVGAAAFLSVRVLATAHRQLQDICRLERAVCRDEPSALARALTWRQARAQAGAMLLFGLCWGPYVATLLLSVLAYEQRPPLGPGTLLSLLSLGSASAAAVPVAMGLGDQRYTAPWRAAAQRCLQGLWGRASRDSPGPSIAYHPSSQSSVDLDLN
# test.method.notes: Human TGR5 cAMP production assay (hTGR5-CHO cells, DiscoveRx cAMP XS+ kit)
# condition.set: luminescent cAMP assay, read-out: Human TGR5 Lum. cAMP Activity (EC50)

[[record]]
molecule = "O=C(O)CNS(=O)(=O)CCNC(=O)CCCC1CCN(c2cc(N3CCC[C@H]3C(=O)NCCc3ccc(C(F)(F)F)cc3)nc(C(F)(F)F)n2)CC1 [Compound 114]"
recorded_value = "< 100 nM"

[[record]]
molecule = "N#Cc1ccc(CCNC(=O)[C@@H]2CCCN2c2cc(-c3ccoc3)nc(C(F)(F)F)n2)cc1 [Compound 164]"
recorded_value = "1000 to 30000 nM"

[[record]]
molecule = "N#Cc1ccc(CCNC(=O)[C@@H]2CCCN2c2cc(N3CCC(CCCC(=O)O)CC3)cc(C(F)(F)F)n2)cc1 [Compound 197]"
recorded_value = "< 100 nM"


Hey, quick one: what's EC50 for each of these?
1. N#Cc1ccc(CCNC(=O)[C@@H]2CCCN2c2cc(-c3ccc(CCN)cc3)nc(C(F)(F)F)n2)cc1 [Compound 184]
2. O=C(CCC1CCN(c2cc(N3CC[C@H]3C(=O)NCCc3ccc(C(F)(F)F)cc3)nc(C(F)(F)F)n2)CC1)NCCS(=O)(=O)O [Compound 254]
3. N#Cc1ccc(CCNC(=O)[C@@H]2CCCN2c2cc(N3CCC(CCN4C(=O)N[C@@H](CS(=O)(=O)O)C4=O)CC3)nc(C(F)(F)F)n2)cc1 [Compound 122]
4. COCCOc1cc(N2CCC[C@H]2C(=O)NCCc2ccc(C(F)(F)F)cc2)nc(C(F)(F)F)n1 [Compound 42]

RESULT:
1. 100 to 999 nM
2. 100 to 999 nM
3. < 100 nM
4. 100 to 999 nM

Hey, quick one: what's EC50 for each of these?
1. CN(CC#CCOC1CCN(c2cc(N3CCC[C@H]3C(=O)NCCc3ccc(C#N)cc3)nc(C(F)(F)F)n2)CC1)CCS(=O)(=O)O [Compound 135]
2. O=C(NCCc1ccc(C(F)(F)F)cc1)[C@@H]1CCCN(c2cc(NCCN3CCOCC3)nc(C(F)(F)F)n2)C1 [Compound 325]
3. CC1(CO)CCN(C(=O)NCCC2CCN(c3cc(N4CCC[C@H]4C(=O)NCCc4ccc(C#N)cc4)nc(C(F)(F)F)n3)CC2)CC1 [Compound 84]

RESULT:
1. 100 to 999 nM
2. 100 to 999 nM
3. < 100 nM
